- Tested on: Escherichia coli (ATCC25922) or Staphylococcus aureus (ATCC25923)
- measurement_protocol: Antibacterial MIC, microdilution method in Mueller-Hinton medium
- Type: cell-based
- assay_context: Escherichia coli, 18 h, read-out: Potency (MIC)
recorded_endpoint: MIC

N[C@@H]1C[C@H](N)CN(c2nc(Nc3ccc(C(=O)Nc4cccc(SC(F)(F)F)c4)c(O)c3)nc(N3C[C@H](N)C[C@H](N)C3)n2)C1 | < 16 µg/mL
N[C@@H]1C[C@H](N)CN(c2nc(Nc3ccc(NC(=O)c4ccc5ccccc5c4O)cc3)nc(N3C[C@@H](N)[C@@H](N)C3)n2)C1 | < 16 µg/mL
NCCN(CCN)c1nc(Nc2ccc(NC(=O)C(=O)c3c[nH]c4ccccc34)c(O)c2)nc(N2C[C@H](N)C[C@H](N)C2)n1 | < 16 µg/mL
N[C@@H]1C[C@H](N)CN(c2nc(Nc3ccc(NC(=O)c4ccc(Cl)cc4)c(O)c3)nc(NC3CCCNC3)n2)C1 (stereo partly shown) | < 16 µg/mL
Cc1cc(=O)oc2cc(Nc3nc(NCCN)nc(N4C[C@H](N)C[C@H](N)C4)n3)ccc12 | > 64 µg/mL
COc1ccc(NC(=O)c2ccc(Nc3nc(N4C[C@H](N)C[C@H](N)C4)nc(N4C[C@H](N)C[C@H](N)C4)n3)cc2O)cc1 | < 64 µg/mL

Continue with the compound presented below.
For the compound NC[C@@H]1C[C@H](N)CN1c1nc(Nc2ccc(C(=O)CC(=O)Nc3ccccc3Cl)cc2)nc(N2C[C@H](N)C[C@H](N)C2)n1 , what MIC is on record?
< 64 µg/mL

====

Measured MIC accompanies every entry in the list below.
- System: Escherichia coli (ATCC25922) or Staphylococcus aureus (ATCC25923)
- measurement_protocol: Antibacterial MIC, microdilution method in Mueller-Hinton medium
- Assay type: cell-based
- assay_context: Escherichia coli, 18 h, read-out: Potency (MIC)

N[C@@H]1C[C@H](N)CN(c2nc(Nc3ccc(C(=O)CC(=O)Nc4ccccc4Cl)cc3)nc(N3C[C@@H](O)[C@@H](O)C3)n2)C1 | < 64 µg/mL
N[C@@H]1C[C@H](N)CN(c2nc(Nc3ccc(S(=O)(=O)Nc4ccc5cn[nH]c5c4)cc3)nc(N3C[C@@H](N)[C@@H](N)C3)n2)C1 | > 64 µg/mL
N[C@@H]1C[C@H](N)CN(c2nc(NCc3ccc(-c4ccccc4)cc3)nc(N3C[C@H](N)C[C@H](N)C3)n2)C1 | < 64 µg/mL
CC(=O)c1ccc(Nc2nc(N3C[C@H](N)C[C@H](N)C3)nc(N3CC[C@H](O)[C@@H]3CN)n2)cc1 | > 64 µg/mL
N[C@@H]1C[C@H](N)CN(c2nc(NNc3ccc(F)cc3)nc(N3C[C@H](N)C[C@H](N)C3)n2)C1 | < 64 µg/mL
N[C@@H]1C[C@H](N)CN(c2nc(NCc3ccc(Oc4ccccc4)cc3)nc(N3C[C@H](N)C[C@H](N)C3)n2)C1 | > 64 µg/mL

Continue with the compound presented below.
For the compound Cc1cc(C)cc(Nc2nc(N3C[C@H](N)C[C@H](N)C3)nc(N3C[C@H](N)C[C@H](N)C3)n2)c1 , what MIC is on record?
< 64 µg/mL

====

Measured MIC accompanies every entry in the list below.
- System: Escherichia coli (ATCC25922) or Staphylococcus aureus (ATCC25923)
- measurement_protocol: Antibacterial MIC, microdilution method in Mueller-Hinton medium
- Assay type: cell-based
- assay_context: Escherichia coli, 18 h, read-out: Potency (MIC)

Known MIC results, listed for orientation:
N[C@@H]1C[C@H](N)CN(c2nc(Nc3ccc(NC(=O)c4ccc(O)cc4O)c(O)c3)nc(N3C[C@H](N)C[C@H](N)C3)n2)C1 | < 16 µg/mL
Cc1ccc(S(=O)(=O)N(Cc2ccccc2)c2ccc(Nc3nc(N4C[C@H](N)C[C@H](N)C4)nc(N4C[C@@H](O)[C@@H](O)C4)n3)cc2O)cc1 | < 64 µg/mL
N[C@@H]1C[C@H](N)CN(c2nc(Nc3ccc(NC(=O)c4ccccc4)c(O)c3)nc(N3C[C@H](N)C[C@H](N)C3)n2)C1 | < 16 µg/mL

For the compound N[C@@H]1C[C@H](N)CN(c2nc(Nc3ccc(C(=O)Nc4ccc5[nH]cnc5c4)c(O)c3)nc(N3C[C@H](N)C[C@H](N)C3)n2)C1 , what MIC is on record?
< 16 µg/mL

Item: N[C@@H]1C[C@H](N)CN(c2nc(NCc3ccc(Cl)cc3Cl)nc(N3C[C@H](N)C[C@H](N)C3)n2)C1
> 64 µg/mL

Item: N[C@@H]1C[C@H](N)CN(c2nc(Nc3ccc(C(=O)CC(=O)Nc4cccc(Cl)c4)cc3)nc(N3C[C@H](N)C[C@H](N)C3)n2)C1
< 16 µg/mL

Item: N[C@@H]1C[C@H](N)CN(c2nc(Nc3ccc(C(=O)Nc4ccc(SC(F)(F)F)cc4)c(O)c3)nc(N3C[C@H](N)C[C@H](N)C3)n2)C1
< 64 µg/mL

Item: Cc1noc(NS(=O)(=O)c2ccc(Nc3nc(N4C[C@H](N)C[C@H](N)C4)nc(N4C[C@H](N)C[C@H](N)C4)n3)cc2)c1C
> 64 µg/mL

Item: N[C@@H]1C[C@H](N)CN(c2nc(Nc3ccc(C(=O)Nc4cccc(Cl)c4)c(O)c3)nc(N3C[C@H](N)C[C@H](N)C3)n2)C1
< 16 µg/mL

Item: N[C@@H]1C[C@H](N)CN(c2nc(Nc3ccc(NC(=O)c4cc(Br)ccc4O)cc3)nc(N3C[C@H](N)C[C@H](N)C3)n2)C1
< 16 µg/mL

Item: N[C@@H]1C[C@H](N)CN(c2nc(Nc3ccc(C(=O)Nc4ccc(Cl)c(Cl)c4)c(O)c3)nc(N3C[C@H](N)C[C@H](N)C3)n2)C1
< 16 µg/mL

Item: N[C@@H]1C[C@H](N)CN(c2nc(NNc3ccccn3)nc(N3C[C@H](N)C[C@H](N)C3)n2)C1
> 64 µg/mL

Item: CC(C)CCCCCC(=O)Nc1ccc(Nc2nc(N3C[C@H](N)C[C@H](N)C3)nc(N3C[C@H](N)C[C@H](N)C3)n2)cc1O
< 16 µg/mL

Item: N[C@@H]1C[C@H](N)CN(c2nc(Nc3cccc(I)c3)nc(N3C[C@H](N)C[C@H](N)C3)n2)C1
< 64 µg/mL

====

Measured MIC accompanies every entry in the list below.
- Test system: Escherichia coli (ATCC25922) or Staphylococcus aureus (ATCC25923)
- measurement_protocol: Antibacterial MIC, microdilution method in Mueller-Hinton medium
- Type: cell-based
- assay_context: Escherichia coli, 18 h, read-out: Potency (MIC)

Known MIC results, listed for orientation:
N[C@@H]1C[C@H](N)CN(c2nc(Nc3ccc(NC(=O)c4ccc5ccccc5c4O)cc3)nc(N3C[C@@H](O)[C@@H](O)C3)n2)C1 | < 64 µg/mL
N[C@@H]1C[C@H](N)CN(c2nc(Nc3ccc4c(c3)-c3ccccc3C4=O)nc(N3CCC[C@@H](O)C3)n2)C1 | < 64 µg/mL

For the molecule N[C@@H]1C[C@H](N)CN(c2nc(N3C[C@H](N)C[C@H](N)C3)nc(-n3ccc4cc(Br)ccc43)n2)C1 , what MIC is on record?
< 64 µg/mL

Item: N[C@@H]1C[C@H](N)CN(c2nc(Nc3nc4ccccc4s3)nc(N3C[C@H](N)C[C@H](N)C3)n2)C1
< 64 µg/mL

Item: NC[C@H]1[C@@H](O)CCN1c1nc(Nc2ccc(NC(=O)c3ccc(Cl)cc3)c(O)c2)nc(N2C[C@H](N)C[C@H](N)C2)n1
< 64 µg/mL

Item: N[C@@H]1C[C@H](N)CN(c2nc(N3C[C@H](N)C[C@H](N)C3)c(Cl)c(Nc3ccc(NC(=O)c4ccc5ccccc5c4O)cc3)c2Cl)C1
< 16 µg/mL

Item: N[C@@H]1C[C@H](N)CN(c2nc(Nc3ccc(C(=O)c4ccccc4)cc3)nc(N3C[C@H](N)C[C@H](N)C3)n2)C1
< 64 µg/mL

Item: CN(C)c1cccc(Nc2nc(N3C[C@H](N)C[C@H](N)C3)nc(N3C[C@H](N)C[C@H](N)C3)n2)c1
> 64 µg/mL

Item: N[C@@H]1C[C@H](N)CN(c2nc(Nc3ccc([N+](=O)[O-])c(Cl)c3)nc(N3C[C@H](N)C[C@H](N)C3)n2)C1
< 16 µg/mL

Item: CC(=O)c1ccc(Nc2nc(N3C[C@H](N)C[C@H](N)C3)nc(N3C[C@H](N)C[C@H](N)C3)n2)cc1
< 64 µg/mL

Item: Cc1ccc(C(=O)Nc2ccc(Nc3nc(N4C[C@H](N)C[C@H](N)C4)nc(N4C[C@H](N)C[C@H](N)C4)n3)cc2O)c(O)n1
< 64 µg/mL

Item: Cc1nc(NS(=O)(=O)c2ccc(Nc3nc(N4C[C@H](N)C[C@H](N)C4)nc(N4C[C@H](N)C[C@H](N)C4)n3)cc2)oc1C
> 64 µg/mL

Item: NC[C@@H]1C[C@@H](O)CN1c1nc(Nc2ccc(C(=O)CC(=O)Nc3ccccc3Cl)cc2)nc(N2C[C@H](N)C[C@H](N)C2)n1
< 64 µg/mL

Item: N[C@@H]1C[C@H](N)CN(c2nc(Nc3ccc(NC(=O)c4cccc(Br)c4)c(O)c3)nc(N3C[C@H](N)C[C@H](N)C3)n2)C1
< 16 µg/mL

Item: NC(=O)c1ccc(Nc2nc(N3C[C@H](N)C[C@H](N)C3)nc(N3C[C@@H](N)C[C@H]3CO)n2)cc1O
> 64 µg/mL
